src = the MegaScale stability set (Tsuboyama et al. 2023)

B1: r4_43_TrROS_Hall (parent)
chain: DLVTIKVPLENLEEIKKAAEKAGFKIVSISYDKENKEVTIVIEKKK

Variants of: B1
PROCEDURE SUMMARY: folding stability dG (cDNA display proteolysis); higher = more stable
TEST SETTINGS: PBS, room temperature
OBSERVED PROPERTY: folding stability dG (kcal/mol)
Report the value in kcal/mol with no unit label.

Here are 6 variants together with their reported answers.
T39H    3.47
D32T    3.81
L9K    3.66
E13I    3.69
A22H    3.64
Y31L    3.12

q: Look up and state reported folding stability dG for V41Y
a: 3.71

q: Look up and report measured folding stability dG for this entry: K33I
a: 3.85

q: Please report the measured folding stability dG for S30W
a: 3.71

q: Entry I15N needs its folding stability dG filled in; supply it.
a: 3.08
